assay: Systemic exposure after topical ocular administration to humans; conditions: human, in vivo, topical or ocular; following topical administration to humans
quantity: Cmax

| item smiles | reported |
| --- | --- |
| N[C@@H]1CCCCN(c2c(F)cc3c(=O)c(C(=O)O)cn(C4CC4)c3c2Cl)C1 | ~0.4 ng/mL |

----------
system: Staphylococcus lugdunensis; assay: MIC, CLSI broth microdilution, clinical isolates; type: cell-based; conditions: Staphylococcus lugdunensis (N = 15)

| molecule | MIC90 |
| --- | --- |
| CC[C@H]1OC(=O)[C@H](C)[C@@H](O[C@H]2C[C@@](C)(OC)[C@@H](O)[C@H](C)O2)[C@H](C)[C@@H](O[C@@H]2O[C@H](C)C[C@H](N(C)C)[C@H]2O)[C@](C)(O)C[C@@H](C)CN(C)[C@H](C)[C@@H](O)[C@]1(C)O [Azithromycin] | > 8 µg/mL |
| COc1c(N2CCNC(C)C2)c(F)cc2c(=O)c(C(=O)O)cn(C3CC3)c12 (stereo not drawn) [Gatifloxacin] | 2 µg/mL |
| Cc1onc(-c2ccccc2)c1C(=O)N[C@@H]1C(=O)N2[C@@H]1SC(C)(C)[C@@H]2C(=O)O [Oxacillin] | > 8 µg/mL |
